Hello, the source for this data is ChEMBL document CHEMBL1157539, in case you need it.

# Tested on: Plasmodium falciparum
# ASSAY_PROCEDURE: GSK_TCMDC: Inhibition of Plasmodium falciparum 3D7 in whole red blood cells, using parasite LDH activity as an index of growth. Test compounds present at 2uM
# Type: functional
MEASURED_PARAMETER: Inhibition (%)

| COMPOUND | MEASURED_PARAMETER | UNIT_LABEL | OBSERVED_MEASUREMENT |
| --- | --- | --- | --- |
| COC(=O)/C=C/c1ccc(CCC(C)NCC(O)c2cccc(Cl)c2)cc1 (stereo not drawn) | Inhibition | % | 94 |
| O=C(/C=C/c1ccc(Cl)c(Cl)c1)NC1CCN(CCNC(=O)c2cccc(Cl)c2)CC1.O=C(O)C(F)(F)F | Inhibition | % | 100 |
| CC(C)NCc1cccc(-c2cccc(NC(=O)c3cccc(C#N)c3)c2)c1.O=C(O)C(F)(F)F | Inhibition | % | 99 |
| O=[N+]([O-])c1cccc(Nc2nccc(-c3cnn4ncccc34)n2)c1 | Inhibition | % | 87 |
| Cc1nc2ccc3ccc(CNc4ccc(C#N)cc4)cc3c2c(=O)[nH]1 | Inhibition | % | 84 |
| O=C(/C=C/c1ccc(Cl)cc1)NCCCCCN1CCCC(C(=O)Nc2ccc(Cl)c(Cl)c2)C1 (stereo not drawn) | Inhibition | % | 96 |
| O=C(N/C=N/c1cc([N+](=O)[O-])c(-c2cccnc2)n1-c1ccc(O)cc1)c1ccccc1 | Inhibition | % | 100 |
| CN(C)Cc1cc2c(O)c(Cc3ccccc3)ccc2o1 | Inhibition | % | 85 |
